# protocol_description: Tmax in Sprague-Dawley rat at 6 mg/kg, po administered as single dose by LC-MS/MS analysis
# Assay type: ADME, organism-based
# experimental_conditions: in vivo
value_kind: Tmax (h)
Write the value in h as a bare number.

Form field Tmax, entry "C[C@H]1CN(C2CCN(c3nc(N)n[nH]3)CC2)[C@@H](Cc2ccc(Cl)cc2)CO1" : 2

---

# protocol_description: Initial plasma concentration in Sprague-Dawley rat at 2 mg/kg, iv administered as single bolus dose by LC-MS/MS analysis
# Assay type: ADME, organism-based
value_kind: C0 (ng/mL)
Answer in ng/mL, number only, no unit symbol.

Short answer for "C[C@H]1CN(C2CCN(c3nc(N)n[nH]3)CC2)[C@@H](Cc2ccc(Cl)cc2)CO1" : C0 was 1000
